target entity: T1, HLA-B*08:01 (human)
T1 construct: MHC monomer first loaded with a UV-sensitive peptide that is cleaved by UV light and exchanged for the test peptide
measurement description: UV peptide exchange ELISA
Quick list: peptide exchange yield per entry.

Qu. I have this binder here, AARLRPAL [AARLRPAL (SEQ ID NO: 7)] , and I need its recorded peptide exchange yield.
Ans. 20 to 50%

Qu. I have this binder here, AARAPPQAL [AARAPPQAL (SEQ ID NO: 250)] , and I need its recorded peptide exchange yield.
Ans. 20 to 50%

***
Qu. I have this binder here, DLVLKRCL [DLVLKRCL (SEQ ID NO: 24)] , and I need its recorded peptide exchange yield.
Ans. ≥ 75%

Qu. I have this binder here, TAAEARLSL [TAAEARLSL (SEQ ID NO: 126)] , and I need its recorded peptide exchange yield.
Ans. 20 to 50%

Qu. I have this binder here, YPLLKDPSL [YPLLKDPSL (SEQ ID NO: 173)] , and I need its recorded peptide exchange yield.
Ans. 50 to 75%

Qu. I have this binder here, IAVDKPITL [IAVDKPITL (SEQ ID NO: 140)] , and I need its recorded peptide exchange yield.
Ans. 20 to 50%

Qu. I have this binder here, FVLLRSVDL [FVLLRSVDL (SEQ ID NO: 83)] , and I need its recorded peptide exchange yield.
Ans. 50 to 75%

Qu. I have this binder here, FAFGEPREL [FAFGEPREL (SEQ ID NO: 104)] , and I need its recorded peptide exchange yield.
Ans. 20 to 50%

Qu. I have this binder here, TIGLGLHSL [TIGLGLHSL (SEQ ID NO: 90)] , and I need its recorded peptide exchange yield.
Ans. 20 to 50%
